Exercise: for every item that follows, state its recorded IC50.
System: P388
Assay: Concentration required to inhibit 50% of cell growth on murine P388 D1 cells.
Type: functional, cell-based
Conditions: Mus musculus
Give bare numbers, in µM.

Below: 4 compounds and their reported IC50.
O=C(/C=C/c1ccccc1)Oc1ccc(/C=C2\CCCCC2=O)cc1: 20.3
CN(C)CC1CCC/C(=C\c2ccc(OC(=O)c3ccccc3)cc2)C1=O (stereo not given): 0.18
COc1ccc(/C=C/C(=O)Oc2ccc(/C=C3\CCCC(CN(C)C)C3=O)cc2)cc1 (stereo not given): 2.41
Cc1ccc(/C=C/C(=O)Oc2ccc(/C=C3\CCCC(CN(C)C)C3=O)cc2)cc1 (stereo not given): 1.29

Exercise: # return IC50 for COc1ccc(/C=C/C(=O)Oc2ccc(/C=C3\CCCCC3=O)cc2)cc1 , test system: P388
Key: 9.03
